- ASSAY_SYSTEM: TYK2 (Homo sapiens, UniProt P29597)
- Construct: Degradation of TYK2 in cells was quantitatively measured using Meso Scale Discovery (MSD) technology; endogenous in cells; host or cells: OCI-LY10
- Sequence (P29597 whole entry): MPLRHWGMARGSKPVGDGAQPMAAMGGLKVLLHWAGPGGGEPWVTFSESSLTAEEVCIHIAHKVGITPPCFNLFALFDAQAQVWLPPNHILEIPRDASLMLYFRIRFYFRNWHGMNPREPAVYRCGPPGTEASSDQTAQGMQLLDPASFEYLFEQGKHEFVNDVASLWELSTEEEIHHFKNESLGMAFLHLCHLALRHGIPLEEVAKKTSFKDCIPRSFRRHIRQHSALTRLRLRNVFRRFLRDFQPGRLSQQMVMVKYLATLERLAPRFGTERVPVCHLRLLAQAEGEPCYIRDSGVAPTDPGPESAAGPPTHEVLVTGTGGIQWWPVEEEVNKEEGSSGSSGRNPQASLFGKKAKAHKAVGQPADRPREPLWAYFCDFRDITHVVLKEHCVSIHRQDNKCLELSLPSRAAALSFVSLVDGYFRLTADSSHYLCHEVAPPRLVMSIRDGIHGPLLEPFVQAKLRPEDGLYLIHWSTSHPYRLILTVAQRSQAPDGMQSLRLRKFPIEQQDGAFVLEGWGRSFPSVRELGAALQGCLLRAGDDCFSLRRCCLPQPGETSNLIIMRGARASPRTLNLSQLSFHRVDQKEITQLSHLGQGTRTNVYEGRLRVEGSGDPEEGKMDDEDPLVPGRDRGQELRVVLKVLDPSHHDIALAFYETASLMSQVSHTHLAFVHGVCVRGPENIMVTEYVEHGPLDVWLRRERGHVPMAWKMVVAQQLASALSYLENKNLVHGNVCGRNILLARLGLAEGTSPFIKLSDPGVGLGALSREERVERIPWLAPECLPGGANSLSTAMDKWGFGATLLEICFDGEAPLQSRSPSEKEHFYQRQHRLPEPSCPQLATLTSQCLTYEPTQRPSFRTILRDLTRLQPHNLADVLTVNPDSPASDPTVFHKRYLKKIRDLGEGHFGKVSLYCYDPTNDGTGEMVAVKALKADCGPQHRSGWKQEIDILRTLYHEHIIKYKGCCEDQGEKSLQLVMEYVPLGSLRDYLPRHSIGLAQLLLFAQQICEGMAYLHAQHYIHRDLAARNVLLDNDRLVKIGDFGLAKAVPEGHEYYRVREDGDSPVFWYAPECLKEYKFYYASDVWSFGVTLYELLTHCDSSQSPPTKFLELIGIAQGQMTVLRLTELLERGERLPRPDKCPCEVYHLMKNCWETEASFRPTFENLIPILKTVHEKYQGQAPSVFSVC
- ASSAY_INFO: TYK2 MSD degradation in OCI-LY10 cells
- Type: cell-based
- CONDITION_LABEL: TYK2 degradation in OCI-LY10 cells, 4 to 24 hours incubation, read-out: TYK2 MSD OCI-LY10 Rel-DC50
Each entry below carries its recorded DC50.

Worked cases, answers included:
- COMPOUND: "CNc1cc(N2CCc3c(C#CCN4CCC5(CN(C(=O)c6ccc(Cl)c(N7CCC(=O)NC7=O)c6)C5)C(F)(F)C4)cccc32)nn2c(C(=O)N[C@@H]3C[C@@H]3F)cnc12"
  DC50: "> 100 nM"
- COMPOUND: "CNc1cc(N2CCc3c(CN4CCC(CN5CCC6(CCN(C(=O)c7ccc(Cl)c(N8CCC(=O)NC8=O)c7)CC6)C(F)(F)C5)C(F)(F)C4)cccc32)nn2c(C(=O)N[C@@H]3CC[C@H]3OC)cnc12 (some centres unmarked)"
  DC50: "< 1 nM"
- COMPOUND: "CNc1cc(N2CC3(CCN(c4ccc5c(c4)n(C)c(=O)n5C4CCC(=O)NC4=O)CC3)c3ccccc32)nn2c(C(=O)NC3CC3)cnc12 (centres unmarked)"
  DC50: "> 100 nM"
- COMPOUND: "CNc1cc(N2CCc3c(CN4CCC(N5CCC6(CCN(C(=O)c7cc(N8CCC(=O)NC8=O)c(C)cn7)CC6)CC5)C(F)(F)C4)cccc32)nn2c(C(=O)N[C@@H]3C[C@@H]3F)cnc12 (some centres unmarked)"
  DC50: "< 1 nM"

Now look at this one.
**Query** Quick one: DC50 of CNc1cc(N2CCc3c(-c4ccc(CN5CCC6(CCC(Nc7ccc(Cl)c(C8CCC(=O)NC8=O)c7)CC6)CC5)cn4)cccc32)nn2c(C(=O)N[C@@H]3C[C@@H]3F)cnc12 (some centres unmarked) ?
**Result** < 10 nM

====

- ASSAY_SYSTEM: TYK2 (Homo sapiens, UniProt P29597)
- Construct: Degradation of TYK2 in cells was quantitatively measured using Meso Scale Discovery (MSD) technology; endogenous in cells; host or cells: OCI-LY10
- ASSAY_INFO: TYK2 MSD degradation in OCI-LY10 cells
- Type: cell-based
- CONDITION_LABEL: TYK2 degradation in OCI-LY10 cells, 4 to 24 hours incubation, read-out: TYK2 MSD OCI-LY10 Rel-DC50
Each entry below carries its recorded DC50.

- COMPOUND: "CNc1cc(N2CCc3c(-c4ncc(CN5CC6(CCN(C(=O)c7ccc(Cl)c(N8CCC(=O)NC8=O)c7)CC6)C5)cn4)cccc32)nn2c(C(=O)N[C@@H]3C[C@@H]3F)cnc12"
  MEASURED_METRIC: "DC50"
  VALUE_REPORTED: "< 0.001 µM"
- COMPOUND: "CNc1cc(N2CC3(CCN(CC4CCN(c5cccc6c5n(C)c(=O)n6C5CCC(=O)NC5=O)CC4)CC3)c3ccccc32)nn2c(C(=O)NC3CC3)cnc12 (stereo not shown)"
  MEASURED_METRIC: "DC50"
  VALUE_REPORTED: "> 0.1 µM"
- COMPOUND: "CNc1cc(N2CCc3c(-c4ccc(CN5CCC6(CCN(C(=O)c7cc(C)c(Cl)c(N8CCC(=O)NC8=O)c7)CC6)C(F)(F)C5)cn4)cccc32)nc2c(C(=O)N[C@@H]3C[C@@H]3F)cnn12"
  MEASURED_METRIC: "DC50"
  VALUE_REPORTED: "< 0.01 µM"
- COMPOUND: "CNc1cc(N2CCc3c(-c4ncc(CN5CCC6(CCN(C(=O)c7cc(C)c(Cl)c(N8CCC(=O)NC8=O)c7)CC6)C(F)(F)C5)cn4)cccc32)nn2c(C(=O)N[C@@H]3C[C@@H]3F)cnc12"
  MEASURED_METRIC: "DC50"
  VALUE_REPORTED: "< 0.01 µM"
- COMPOUND: "CNc1cc(N2CCc3c(-c4ccc(CN5CCC6(CC5)CCN(c5ccc(Cl)c(NC7CCC(=O)NC7=O)c5)CC6)cn4)cccc32)nn2c(C(=O)NC3CC3)cnc12 (stereo not shown)"
  MEASURED_METRIC: "DC50"
  VALUE_REPORTED: "> 0.1 µM"

**Query** Form field - read-out: DC50; system: TYK2 (Homo sapiens, UniProt P29597); submitted item: CNc1cc(N2CCc3c(-c4ccc(CN5CCC(N6CC7(CCN(c8cccc9c8n(C)c(=O)n9C8CCC(=O)NC8=O)CC7)C6)C(F)(F)C5)cn4)cccc32)nn2c(C(=O)N[C@@H]3C[C@@H]3F)cnc12 (stereo partly shown)
**Result** < 0.01 µM

**Query** Form field - read-out: DC50; system: TYK2 (Homo sapiens, UniProt P29597); submitted item: CNc1cc(N2CCc3c(N4CCN(C5CCN(C(=O)c6ccc(Cl)c(N7CCC(=O)NC7=O)c6)CC5)CC4)cccc32)nn2c(C(=O)N[C@@H]3C[C@@H]3F)cnc12
**Result** > 0.1 µM

**Query** Form field - read-out: DC50; system: TYK2 (Homo sapiens, UniProt P29597); submitted item: CNc1cc(N2CCc3c(CN4CCC(N5CCC6(CCN(c7ccc8c(c7)n(C)c(=O)n8C7CCC(=O)NC7=O)CC6)CC5)C(F)(F)C4)cccc32)nn2c(C(=O)N[C@@H]3C[C@@H]3F)cnc12 (stereo partly shown)
**Result** < 0.001 µM

**Query** Form field - read-out: DC50; system: TYK2 (Homo sapiens, UniProt P29597); submitted item: CNc1cc(N2CCc3c(-c4ncc(CN5CC6(CCN(C(=O)c7cc(N8CCC(=O)NC8=O)c(Cl)c(C)n7)CC6(F)F)C5)cc4F)cc(F)cc32)nn2c(C(=O)N[C@@H]3C[C@@H]3F)cnc12
**Result** < 0.001 µM

**Query** Form field - read-out: DC50; system: TYK2 (Homo sapiens, UniProt P29597); submitted item: CNc1cc(N2CCc3c(-c4ncc(CN5CC6(CCN(C(=O)c7cc(N8CCC(=O)NC8=O)c(Cl)c(C)n7)CC6(F)F)C5)cc4F)cccc32)nn2c(C(=O)N[C@@H]3C[C@@H]3F)cnc12
**Result** < 0.001 µM
